Molecular target: T1, T cell receptor (TCR) Vγ9 (TRGV9) (human, UniProt Q99603 21-122)
T1 sequence (looked up): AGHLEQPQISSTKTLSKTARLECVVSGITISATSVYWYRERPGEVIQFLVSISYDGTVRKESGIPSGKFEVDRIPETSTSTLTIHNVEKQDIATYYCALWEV
Test: cell-based or functional assay
MEASURE: IFNγ, Luminex (supernatant)

Need IFNγ, Luminex (supernatant), item VG9B121 (antibody, human IgG1, kappa, V domains shown) VH: EVQLVESGGGLVKPGGSLRLSCVASGFTFSDYAMDWVRQAPGKGLDWISSISSTSNYIFYADSVKGRFTISRDNAKNSLYLQMNSLRVEDSAVYYCANSYNWNYGGAFDIWGQGTMVTVSS VL: DIQMTQSPGTLSSSPGERATLSCRASQSVSSSYFAWYQQKPGRAPRLLIYGASSRATGIPDRFSGSGSGTDFTLTISRLEPEDFAVYFCQQYGRSPLTFGGGTKVEIKR
429

Need IFNγ, Luminex (supernatant), item VG9B195 (antibody, human IgG1, lambda, V domains shown) VH: EVQLVESGGGLVKPGGSLRLSCAASGFTFSPYTMNWVRQAPGKGLEWVSSISSSSSYMYYADSVKGRFTISRDNAKNSLYLQMNSLRAEDTAVYYCARDGDLVGPTYYFDYWGQGTLVTVSS VL: SYELMQPPSVSVSPGQTASITCSGDKLGDKYACWYQQKPGQSPVLVIYQHNKRPSGIPERFSGSNSGKTATLTISGTQAMDEADYYCQAWDSTTVVFGGGTKLTVLG
303

Need IFNγ, Luminex (supernatant), item VG9B80 (antibody, human IgG1, kappa, V domains shown) VH: EVQLVQSGGGLVKSGGSLRLSCAASGFTFSTYSMNWVRQAPGKGLEWVSSISSSSSYIFYADSVKGRIIISRDNAKNSLYLQMNSVRADDTAVYYCAKDGELGVFDYWGQGTLVTVSS VL: EIVLTQSPGTLSLSAGERATLSCRASQSISSSYLAWYQQKPGQAPRVLIYGPSGRATGIPDRFRGSGSGTDFTLTISRLEPEDFAVYYCQQFGRSPLTFGGGTKVEIKR
1360

Need IFNγ, Luminex (supernatant), item VG9B54 (antibody, human IgG1, kappa, V domains shown) VH: EVQLVESGGGLVKPGGSLRLSCAASGFAFSSYSLTWVRQAPGKGLEWVSSISSSSSYIFYADSVKGRFTISRDNAKNSLYLQMNSLRAEDTAVYYCATDGELGPFDYWGQGTTVTVSS VL: EIVMTQSPGTLSLSPGERATLSCRASQSVSSSYLAWFQQKPGQAPRRLIYGASSRATGIPDRFSGSGSGTDFTLTISRLEPEDFAVYYCQQYGRSPLTFGGGTKVEIKR
1600

Need IFNγ, Luminex (supernatant), item VG9B46 (antibody, human IgG1, kappa, V domains shown) VH: EVQLVESGGGLVKPGGSLRLSCEASGFTFSINSMNWVRQAPGKGLEWVSSISSTSDYIFNADSVKGRFTISRDNAKNSLYLQMNSLRAEDTAVYYCVRDDVFGAFDIWGQGTMVTVSS VL: EIVLTQSPGTLSLSPGERATLSCRTSQSVSRSYLGWYQQKPGQPPRLLIFGSSSRATGIPDRFSGSGSGTDFTLTISRLEPEDFAVYYCQQYSRSPLTFGGGTKVDIKR
1150

The reported numbers originate from patent US20220125947A1.
